Experiment: Mouse in vivo oral and iv PK
Conditions: male, whole blood, CD1 mice, iv at 1 mg/kg
observable: clearance (mL/min/kg)

[[record]]
compound = "CON(C)C(=O)/C=C/C=C(\\C)[C@@H]1C/C=C/C=C/[C@H](O)[C@H](C)[C@@H](O)[C@@H](CCC(C)=O)C(=O)N[C@@H](C(C)C)C(=O)N[C@@H](Cc2cc(O)cc(F)c2)C(=O)N2CCCC(N2)C(=O)O1 (stereo partly shown) [Compound 23]"
observable = "clearance"
units = "mL/min/kg"
observed_measurement = 0.65


====

Assay: Anti-metabolic effect (MTS) in Huh5.2 replicon cells
Settings: human, Huh5.2 cells containing the HCV genotype 1b replicon
observable: CC50 at 72 h

[[record]]
molecule = "CC(=O)CC[C@H]1C(=O)N[C@@H](C(C)C)C(=O)N[C@@H](Cc2ccc(C)c(O)c2)C(=O)N2CCCC(N2)C(=O)O[C@H](/C(C)=C/C=C/C(=O)N2CCCCO2)C/C=C/C=C/[C@H](O)[C@H](C)[C@H]1O (stereo partly shown) [Compound 27]"
observable = "CC50 at 72 h"
observed_measurement = "> 100 µM"

